The following compounds are listed with their measured pEC50 values.
# TGT: human PD-L1 (Homo sapiens (Human), UniProt Q9NZQ7)
# Sequence (Q9NZQ7 19-290): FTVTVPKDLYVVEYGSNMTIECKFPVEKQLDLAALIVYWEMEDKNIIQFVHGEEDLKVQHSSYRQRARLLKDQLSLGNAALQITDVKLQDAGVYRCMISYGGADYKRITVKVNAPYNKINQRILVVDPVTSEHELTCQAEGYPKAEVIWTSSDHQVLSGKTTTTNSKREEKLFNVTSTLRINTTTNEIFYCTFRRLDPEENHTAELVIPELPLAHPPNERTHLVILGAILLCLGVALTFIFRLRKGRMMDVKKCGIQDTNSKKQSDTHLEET
# EXPERIMENT_NOTES: T cell activation luciferase reporter cell culture system (T Cell Activation Assay)
# Type: cell-based
# CONDITION_SUMMARY: luciferase reporter assay; PD-L1 aAPC/CHO-K1 cells with PD-1 effector Jurkat T cells
Here pEC50 is given on a logarithmic scale as minus log10 of the concentration in mol/L.

1. COc1cc(-c2nccc(-c3cccc(-c4ccc(CNC5CCN(C(C)=O)CC5)c(OC)n4)c3Cl)c2Cl)ccc1CN1CCC[C@@H](O)C1
7.54
2. COc1cc(-c2cccc(-c3ccnc(-c4cnc(CNC5CCN(C(C)=O)CC5)c(OC)c4)c3Cl)c2Cl)ccc1CNC1CCN(C(C)=O)CC1
6.92

Task item: Item under review: COc1cc(-c2nccc(-c3cccc(-c4ccc(CNC5CCN(C(C)=O)CC5)c(OC)n4)c3C)c2Cl)ccc1CNC1CCN(C(C)=O)CC1 . Reported pEC50?
Reply: 7.11

Task item: Also need COc1cc(-c2nccc(-c3cccc(-c4ccc(CNC5CCN(C(C)=O)CC5)c(OC)n4)c3Cl)c2Cl)ccc1CN1CC2(COC2)C1 , thanks.
Reply: 7.69

Task item: Also need COc1nc(-c2cccc(-c3ccnc(-c4ccc5c(CNC[C@@H]6CCCO6)cn(C)c5c4)c3Cl)c2Cl)ccc1CNC[C@@H]1CCC(=O)N1 , thanks.
Reply: 6.79

Task item: Also need COc1cc(-c2nccc(-c3cccc4c3CC[C@@H]4Nc3nc(OC)c(CN4CC5(CNC(=O)C5)C4)nc3C(F)(F)F)c2Cl)ccc1CN1CC2(CNC(=O)C2)C1 , thanks.
Reply: 6.80

Task item: Also need COc1nc(-c2cccc(-c3ccnc(-c4cc(OC)c5nc(CN6CC7(C6)CN(C(C)=O)C7)nn5c4)c3Cl)c2Cl)ccc1CNC(C)C , thanks.
Reply: 7.04

Task item: Also need COc1cc(-c2nccc(-c3cccc(-c4ccc(CN5CC6(CCN(CCO)C6)C5)c(OC)n4)c3Cl)c2Cl)ccc1CN1CC2(CCN(CCO)C2)C1 , thanks.
Reply: 7.21

Task item: Also need COc1cc(-c2nccc(-c3cccc(-c4ccc(CN[C@H]5CC[C@H](OC)CC5)c(OC)n4)c3Cl)c2Cl)ccc1CNC1CCN(C(C)=O)CC1 , thanks.
Reply: 7.47

Task item: Also need COC(=O)CCN1CCc2cc(-c3nccc(-c4cccc(-c5ccc(CNC[C@H](C)O)c(OC)n5)c4Cl)c3Cl)cc(OC)c2C1 , thanks.
Reply: 7.05

Task item: Also need COc1cc(-c2nccc(-c3cccc(-c4ccc(CNC[C@H](C)O)c(OC)n4)c3Cl)c2Cl)cc2c1CN(CCC(=O)O)CC2 , thanks.
Reply: 7.22

Task item: Also need CNCc1ccc(-c2nccc(-c3cccc(-c4ccc(CNC)c(OC)n4)c3Cl)c2C)cc1OC , thanks.
Reply: 7.41
